STUDY TARGET: E. coli MurD (Escherichia coli, UniProt P14900)
Sequence (P14900 whole entry): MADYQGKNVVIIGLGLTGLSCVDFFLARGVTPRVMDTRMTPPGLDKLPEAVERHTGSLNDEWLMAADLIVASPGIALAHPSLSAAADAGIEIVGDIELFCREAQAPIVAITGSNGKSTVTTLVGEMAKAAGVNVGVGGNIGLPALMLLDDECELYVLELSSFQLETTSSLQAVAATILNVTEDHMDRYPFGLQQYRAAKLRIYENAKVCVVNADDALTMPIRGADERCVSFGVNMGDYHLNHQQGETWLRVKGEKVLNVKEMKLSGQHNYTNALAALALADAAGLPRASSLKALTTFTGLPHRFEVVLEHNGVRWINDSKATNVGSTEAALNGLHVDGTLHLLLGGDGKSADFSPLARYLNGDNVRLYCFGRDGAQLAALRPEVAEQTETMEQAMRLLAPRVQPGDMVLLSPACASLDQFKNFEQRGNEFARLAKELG
TEST DETAILS: biochemical
RECORDED CONDITIONS: 0.25 h, Table S1, PKIS screening; read-out: RA [%] at 100 µM MurD
OBSERVABLE: remaining activity at 100 µM

[[record]]
compound = "Cn1cc(C=C2C(=O)Nc3cccnc32)c2ccccc21 [GW441756X]"
study_target = "E. coli MurD (Escherichia coli, UniProt P14900)"
result = "99%"

[[record]]
compound = "CCn1c(-c2nonc2N)nc2ccc(F)cc21 [GW785404X]"
study_target = "E. coli MurD (Escherichia coli, UniProt P14900)"
result = "88%"

[[record]]
compound = "O=C(Nc1n[nH]c2cc(-c3ccccc3)ccc12)C1CC1"
study_target = "E. coli MurD (Escherichia coli, UniProt P14900)"
result = "79%"

[[record]]
compound = "O=C(Nc1ccc(Oc2ccc3nc(NC(=O)c4ccco4)[nH]c3c2)cc1)Nc1cc(C(F)(F)F)ccc1F [GW683134A]"
study_target = "E. coli MurD (Escherichia coli, UniProt P14900)"
result = "86%"

[[record]]
compound = "COc1ccccc1-c1cc(/C=C2\\C(=O)Nc3ncc(Br)cc32)cc(Br)c1O [GW442130X]"
study_target = "E. coli MurD (Escherichia coli, UniProt P14900)"
result = "84%"


* * *

A collection of compounds and their measured remaining activity at 100 µM
STUDY TARGET: E. coli MurF (Escherichia coli, UniProt P11880)
Sequence (P11880 whole entry): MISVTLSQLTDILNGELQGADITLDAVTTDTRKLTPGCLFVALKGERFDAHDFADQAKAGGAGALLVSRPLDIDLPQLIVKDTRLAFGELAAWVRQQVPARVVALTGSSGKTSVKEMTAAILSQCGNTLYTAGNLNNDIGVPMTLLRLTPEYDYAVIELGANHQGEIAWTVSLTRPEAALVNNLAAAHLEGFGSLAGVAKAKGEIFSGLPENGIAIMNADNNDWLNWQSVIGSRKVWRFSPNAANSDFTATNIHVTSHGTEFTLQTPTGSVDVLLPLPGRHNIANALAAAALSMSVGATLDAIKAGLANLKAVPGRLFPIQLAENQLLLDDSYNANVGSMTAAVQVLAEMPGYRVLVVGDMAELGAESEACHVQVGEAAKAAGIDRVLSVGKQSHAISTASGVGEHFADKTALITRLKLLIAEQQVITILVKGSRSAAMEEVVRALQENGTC
TEST DETAILS: biochemical
RECORDED CONDITIONS: 0.25 h, Table S1, PKIS screening; read-out: RA [%] at 100 µM MurF
OBSERVABLE: remaining activity at 100 µM (%)

[[record]]
compound = "Cc1nnc(-c2cccc(-c3ccc(C(=O)NCC4CC4)cc3)c2)o1 [GW734508X]"
study_target = "E. coli MurF (Escherichia coli, UniProt P11880)"
readout_number = 74

[[record]]
compound = "N#Cc1c(NC(=O)c2ccc(F)cc2)sc2c1CCCC2"
study_target = "E. coli MurF (Escherichia coli, UniProt P11880)"
readout_number = 100

[[record]]
compound = "O=C(Nc1n[nH]c2nc(-c3ccc(O)cc3)c(Br)cc12)C1CC1"
study_target = "E. coli MurF (Escherichia coli, UniProt P11880)"
readout_number = 89

[[record]]
compound = "CC(C)c1ccc(-c2cc(-c3c[nH]nc3-c3ccccn3)ccn2)cc1 [GW682841X]"
study_target = "E. coli MurF (Escherichia coli, UniProt P11880)"
readout_number = 88

[[record]]
compound = "COc1ccc2[nH]c3c4[nH]c5ccc(OC)cc5c4c4c(c3c2c1)C(=O)NC4=O [GW296115X]"
study_target = "E. coli MurF (Escherichia coli, UniProt P11880)"
readout_number = 100


* * *

STUDY TARGET: E. coli MurF (Escherichia coli, UniProt P11880)
TEST DETAILS: biochemical
RECORDED CONDITIONS: 0.25 h, Table S1, PKIS screening; read-out: RA [%] at 100 µM MurF
OBSERVABLE: remaining activity at 100 µM (%)

[[record]]
compound = "COc1cc(Nc2ncc(-c3ccccc3)o2)cc(OC)c1OC [GW627512B]"
readout_number = 100

[[record]]
compound = "[O-][S+]1CCN(Cc2ccc(-c3ccc4ncnc(Nc5ccc(OCc6cccc(F)c6)c(Cl)c5)c4c3)o2)CC1 [GW576609A]"
readout_number = 78

[[record]]
compound = "CC1=C(C(=O)Nc2cc(Cl)c3[nH]ncc3c2)C(c2ccc(C(F)(F)F)cc2)CC(=O)N1 (centres unmarked) [GSK466317A]"
readout_number = 71

[[record]]
compound = "NC(=O)c1cccc(Nc2nccc(Nc3cccc(F)c3)n2)c1 [GW759710A]"
readout_number = 100

[[record]]
compound = "CC(C)c1ccc(Nc2nccc(-c3cnn4ncccc34)n2)cc1 [GW805758X]"
readout_number = 68

